# key: entry, value: IC50
- TESTED_SYSTEM: HCV polymerase (NS5B) type 1b (Hepatitis C virus genotype 1b)
- Construct: a region encoding NS5B (J Virol 1991 March, 65(3), 1105-13, 544 amino acids after deletion of 47 amino acids on the C-terminal); 6xHis (C); made in house; host or cells: Escherichia coli
- EXPERIMENT: Assay of enzyme (HCV polymerase) inhibitory activity, type 1b enzyme
- Assay type: biochemical, HCV BK strain (type 1b)
- EXPERIMENTAL_PARAMETERS: HCV polymerase inhibitory activity IC50, 1b, type 1b enzyme
- Method: The evaluation of the HCV polymerase inhibitory activity of the compound of the present invention is explained in the following. This polymerase is an enzyme coded for by the non-structural protein region called NS5B on the genome RNA of HCV. i) Preparation of Enzyme (HCV Polymerase) […] The HCV polymerase inhibitory activity (IC50) of the compound of the present invention was calculated from the values of radioactivity of the enzyme reaction with and without the test substance. […]
ASSAY_METRIC: IC50

[[record]]
mol_smiles = "CCC(F)(F)c1ccc(CNC(=O)[C@H]2CN(c3cnc4cc(Br)ccc4n3)CCN2S(=O)(=O)c2ccc(OC(F)(F)F)cc2)cc1"
measured_result = "100 to 1000 nM"

[[record]]
mol_smiles = "CCC(F)(F)c1ccc(CNC(=O)[C@H]2CN(c3cnc4cnccc4n3)CCN2S(=O)(=O)c2ccc(N3CCCC3=O)cc2)cc1"
measured_result = "< 100 nM"

[[record]]
mol_smiles = "NC(=O)c1cncc2sc(N3CCN(S(=O)(=O)c4ccc(OC(F)(F)F)cc4)[C@@H](C(=O)NCc4ccc(OC(F)(F)F)cc4)C3)nc12"
measured_result = "< 100 nM"


---

- TESTED_SYSTEM: HCV polymerase (NS5B) type 1b (Hepatitis C virus genotype 1b)
- Construct: a region encoding NS5B (J Virol 1991 March, 65(3), 1105-13, 544 amino acids after deletion of 47 amino acids on the C-terminal); 6xHis (C); made in house; host or cells: Escherichia coli
- EXPERIMENT: Assay of enzyme (HCV polymerase) inhibitory activity, type 1b enzyme
- Assay type: biochemical, HCV BK strain (type 1b)
- EXPERIMENTAL_PARAMETERS: HCV polymerase inhibitory activity IC50, 1b, type 1b enzyme
# key: entry, value: IC50
ASSAY_METRIC: IC50

[[record]]
compound = "COc1ccccc1CCNC(=O)[C@H]1CN(C(C)=O)CCN1S(=O)(=O)c1ccc(OC(F)(F)F)cc1 [Example 671]"
measured_result = "> 1000 nM"

[[record]]
compound = "O=C(NCc1ccc(OC(F)F)c(F)c1)[C@H]1CN(c2nc3nc(C4CC4)ncc3s2)CCN1S(=O)(=O)c1ccc(OC(F)(F)F)cc1 [Example 1073]"
measured_result = "< 100 nM"

[[record]]
compound = "NC(=O)c1nncc2sc(N3CCN(S(=O)(=O)c4ccc(OC(F)(F)F)cc4)[C@@H](C(=O)NCc4ccc(OC(F)(F)F)cc4)C3)nc12 [Example 915]"
measured_result = "< 100 nM"

[[record]]
compound = "CCCc1ccc(CNC(=O)[C@H]2CN(c3ccc(C(=O)O)c(F)c3)CCN2S(=O)(=O)c2ccc(CC)cc2)cc1 [Example 889]"
measured_result = "> 1000 nM"


---

- TESTED_SYSTEM: HCV polymerase (NS5B) type 1b (Hepatitis C virus genotype 1b, UniProt P26663)
- Construct: a region encoding NS5B (J Virol 1991 March, 65(3), 1105-13, 544 amino acids after deletion of 47 amino acids on the C-terminal); 6xHis (C); made in house; host or cells: Escherichia coli
- EXPERIMENT: Assay of enzyme (HCV polymerase) inhibitory activity, type 1b enzyme
- Assay type: biochemical, HCV BK strain (type 1b)
- EXPERIMENTAL_PARAMETERS: HCV polymerase inhibitory activity (IC50), 1b, type 1b enzyme 0.5 μg/ml, 25° C., 60 min
- Procedure: The evaluation of the HCV polymerase inhibitory activity of the compound of the present invention is explained in the following. This polymerase is an enzyme coded for by the non-structural protein region called NS5B on the genome RNA of HCV. i) Preparation of Enzyme (HCV Polymerase) […] The HCV polymerase inhibitory activity (IC50) of the compound of the present invention was calculated from the values of radioactivity of the enzyme reaction with and without the test substance. […]
# key: entry, value: IC50
ASSAY_METRIC: IC50

[[record]]
compound = "CC(C)c1ccc(CNC(=O)[C@H]2CN(C(=O)CCCCC(=O)O)CCN2S(=O)(=O)c2ccc(C(F)(F)F)cc2)cc1"
assay_metric = "IC50"
measured_result = "100 to 1000 nM"

[[record]]
compound = "CCOC(=O)COc1ccc(NC(=O)N2CCN(S(=O)(=O)c3ccc(C(F)(F)F)cc3)[C@@H](C(=O)NCc3ccc(C(C)C)cc3)C2)cc1"
assay_metric = "IC50"
measured_result = "100 to 1000 nM"

[[record]]
compound = "CC(=O)N1CCN(S(=O)(=O)c2cccc(C(F)(F)F)c2)[C@@H](C(=O)NCc2ccc(C(C)C)cc2)C1"
assay_metric = "IC50"
measured_result = "100 to 1000 nM"

[[record]]
compound = "CC(=O)N1CCN(S(=O)(=O)c2ccc(Cl)c(Cl)c2)C(C(=O)NCc2ccc(C(F)(F)F)cc2)C1 (stereo not shown)"
assay_metric = "IC50"
measured_result = "> 1000 nM"

[[record]]
compound = "CC(=O)N1CCN(S(=O)(=O)c2ccc(C(C)C)cc2)[C@@H](C(=O)NCc2ccc(C(C)C)cc2Cl)C1"
assay_metric = "IC50"
measured_result = "100 to 1000 nM"

[[record]]
compound = "CC(=O)N1CCN(S(=O)(=O)c2ccc(Br)cc2)[C@@H](C(=O)NCc2ccc(C(C)C)cc2)C1"
assay_metric = "IC50"
measured_result = "100 to 1000 nM"

[[record]]
compound = "CCCc1ccc(S(=O)(=O)N2CCN(C(C)=O)C[C@@H]2C(=O)NCc2ccc(C(C)C)cc2)cc1"
assay_metric = "IC50"
measured_result = "< 100 nM"


---

# key: entry, value: IC50
- TESTED_SYSTEM: HCV polymerase (NS5B) type 1a (Hepatitis C virus genotype 1a, UniProt P26664)
- Construct: made in house; host or cells: Escherichia coli (by the 'similar method' of the 1b enzyme)
- EXPERIMENT: Assay of enzyme (HCV polymerase) inhibitory activity, type 1a enzyme
- Assay type: biochemical, HCV type 1a (cloned from the blood of patients)
- EXPERIMENTAL_PARAMETERS: HCV polymerase inhibitory activity (IC50), 1a, type 1a enzyme 1.5 μg/ml, 25° C., 60 min
- Method: The evaluation of the HCV polymerase inhibitory activity of the compound of the present invention is explained in the following. This polymerase is an enzyme coded for by the non-structural protein region called NS5B on the genome RNA of HCV. i) Preparation of Enzyme (HCV Polymerase) […] The HCV polymerase inhibitory activity (IC50) of the compound of the present invention was calculated from the values of radioactivity of the enzyme reaction with and without the test substance. […]
ASSAY_METRIC: IC50

[[record]]
molecule = "CC(C)c1ccc(CNC(=O)[C@H]2CN(C(=O)CN3CCOCC3)CCN2S(=O)(=O)c2ccc(C(F)(F)F)cc2)cc1 [Example 180]"
tested_system = "HCV polymerase (NS5B) type 1a (Hepatitis C virus genotype 1a, UniProt P26664)"
assay_metric = "IC50"
measured_result = "> 1 µM"

[[record]]
molecule = "CCCc1ccc(CNC(=O)[C@H]2CN(C(C)=O)CCN2S(=O)(=O)c2ccc(OC(F)(F)F)cc2)cc1 [Example 450]"
tested_system = "HCV polymerase (NS5B) type 1a (Hepatitis C virus genotype 1a, UniProt P26664)"
assay_metric = "IC50"
measured_result = "< 0.1 µM"

[[record]]
molecule = "CCCc1ccc(CNC(=O)[C@H]2CN(c3nc(C)c(C(=O)O)s3)CCN2S(=O)(=O)c2ccc(OC(F)(F)F)cc2)cc1 [Example 378]"
tested_system = "HCV polymerase (NS5B) type 1a (Hepatitis C virus genotype 1a, UniProt P26664)"
assay_metric = "IC50"
measured_result = "< 0.1 µM"

[[record]]
molecule = "Cc1nc(N2CCN(S(=O)(=O)c3ccc(OC(F)(F)F)cc3)[C@@H](C(=O)NCc3ccc(OC(F)(F)F)cc3)C2)sc1C(=O)O [Example 365]"
tested_system = "HCV polymerase (NS5B) type 1a (Hepatitis C virus genotype 1a, UniProt P26664)"
assay_metric = "IC50"
measured_result = "< 0.1 µM"

[[record]]
molecule = "CCCc1ccc(CNC(=O)[C@H]2CN(C(=O)Nc3nc(CC(=O)N4CCOCC4)cs3)CCN2S(=O)(=O)c2ccc(OC(F)(F)F)cc2)cc1 [Example 475]"
tested_system = "HCV polymerase (NS5B) type 1a (Hepatitis C virus genotype 1a, UniProt P26664)"
assay_metric = "IC50"
measured_result = "0.1 to 1 µM"

[[record]]
molecule = "COc1cccc(S(=O)(=O)N2CCN(C(C)=O)CC2C(=O)NCc2ccc(C(F)(F)F)cc2)c1 (stereo not shown) [Example 71]"
tested_system = "HCV polymerase (NS5B) type 1a (Hepatitis C virus genotype 1a, UniProt P26664)"
assay_metric = "IC50"
measured_result = "> 1 µM"

[[record]]
molecule = "CC(C)c1ccc(CNC(=O)[C@H]2CN(C(=O)Nc3ccncc3)CCN2S(=O)(=O)c2ccc(C(F)(F)F)cc2)cc1 [Example 347]"
tested_system = "HCV polymerase (NS5B) type 1a (Hepatitis C virus genotype 1a, UniProt P26664)"
assay_metric = "IC50"
measured_result = "0.1 to 1 µM"

